# Tested on: Salmonella typhimurium
# method: Antibacterial activity against Salmonella enterica serovar Typhimurium R200 expressing Outer membrane protein STM3031 by CLSI M7-A7 agar dilution method
# Format: functional, Salmonella enterica subsp. enterica serovar Typhimurium
measured quantity: MIC

[[record]]
structure_notation = "CN[C@@H]1[C@H](O[C@H]2[C@H](O[C@H]3[C@H](O)[C@@H](O)[C@H](N=C(N)N)[C@@H](O)[C@@H]3N=C(N)N)O[C@@H](C)[C@]2(O)C=O)O[C@@H](CO)[C@H](O)[C@H]1O"
reported_measurement = "256 µg/mL"

[[record]]
structure_notation = "CCN1CCN(C(=O)N[C@@H](C(=O)N[C@@H]2C(=O)N3[C@@H]2SC(C)(C)[C@@H]3C(=O)O)c2ccccc2)C(=O)C1=O"
reported_measurement = "> 256 µg/mL"

[[record]]
structure_notation = "Cn1nnnc1SCC1=C(C(=O)O)N2C(=O)[C@@H](NC(=O)[C@H](O)c3ccccc3)[C@H]2SC1"
reported_measurement = "> 256 µg/mL"


----------
# Tested on: Salmonella typhimurium
# method: Antibacterial activity against Salmonella enterica serovar Typhimurium R200 expressing Outer membrane protein STM3031 by CLSI M7-A7 agar dilution method
# Type: functional, Salmonella enterica subsp. enterica serovar Typhimurium
measured quantity: MIC (mg/L)

[[record]]
structure_notation = "CC(=O)OCC1=C(C(=O)O)N2C(=O)[C@@H](NC(=O)Cc3cccs3)[C@H]2SC1"
output_unit = "mg/L"
relation_operator = ">"
reported_measurement = 256

[[record]]
structure_notation = "CO[C@@H]1[C@@H](OC(N)=O)[C@@H](O)[C@H](Oc2ccc3c(O)c(NC(=O)c4ccc(O)c(CC=C(C)C)c4)c(=O)oc3c2C)OC1(C)C"
output_unit = "mg/L"
relation_operator = "="
reported_measurement = 256

[[record]]
structure_notation = "CN(C)[C@@H]1C(O)=C(C(N)=O)C(=O)[C@@]2(O)C(O)=C3C(=O)c4c(O)cccc4[C@@](C)(O)[C@H]3C[C@@H]12"
output_unit = "mg/L"
relation_operator = "="
reported_measurement = 16


----------
This section presents compounds with their documented MIC values.
# Test system: Salmonella typhimurium
# method: Antibacterial activity against Salmonella enterica serovar Typhimurium R200 expressing Outer membrane protein STM3031 by CLSI M7-A7 agar dilution method
# Type: functional, Salmonella enterica subsp. enterica serovar Typhimurium
measured quantity: MIC (µg/mL)

[[record]]
structure_notation = "CC[C@H]1OC(=O)[C@H](C)[C@@H](O[C@H]2C[C@@](C)(OC)[C@@H](O)[C@H](C)O2)[C@H](C)[C@@H](O[C@@H]2O[C@H](C)C[C@H](N(C)C)[C@H]2O)[C@](C)(O)C[C@@H](C)C(=O)[C@H](C)[C@@H](O)[C@]1(C)O"
measured_quantity = "MIC"
relation_operator = "="
reported_measurement = 4

[[record]]
structure_notation = "CN[C@@H]1[C@H](O)[C@H](NC)[C@H]2O[C@@]3(O)C(=O)C[C@@H](C)O[C@H]3O[C@@H]2[C@H]1O"
measured_quantity = "MIC"
relation_operator = ">"
reported_measurement = 256

[[record]]
structure_notation = "CCn1cc(C(=O)O)c(=O)c2ccc(C)nc21"
measured_quantity = "MIC"
relation_operator = "="
reported_measurement = 1

[[record]]
structure_notation = "CO[C@H]1/C=C/O[C@@]2(C)Oc3c(C)c(O)c4c(O)c(c(/C=N/N5CCN(C)CC5)c(O)c4c3C2=O)NC(=O)/C(C)=C\\C=C\\[C@H](C)[C@H](O)[C@@H](C)[C@@H](O)[C@@H](C)[C@H](OC(C)=O)[C@@H]1C"
measured_quantity = "MIC"
relation_operator = "="
reported_measurement = 16

[[record]]
structure_notation = "CO/N=C(\\C(=O)N[C@@H]1C(=O)N2C(C(=O)O)=C(CSc3nc(=O)c(O)nn3C)CS[C@H]12)c1csc(N)n1"
measured_quantity = "MIC"
relation_operator = ">"
reported_measurement = 256


Taken from ChEMBL document CHEMBL1649542.
